B1: Neutrophil cytosol factor 2, residues 456 to 514; numbered along this chain, P19878 (parent)
chain: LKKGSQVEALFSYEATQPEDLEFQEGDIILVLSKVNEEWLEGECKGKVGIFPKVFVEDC

- Variants of: B1
- protocolDetails: abundance fitness (aPCA) (normalised: wild type 0, dead -1); higher = more abundant; growth selection in yeast, the domain comes from the species named
- recordedConditions: Homo sapiens
parameter: abundance fitness
// no unit, no text: just the number

Known results for variants:
{"biopolymerSequence": "LKKGSQVEALFSYEATQPEDCEFQEGDIILVLSKVNEEWLEGECKGKVGIFPKVFVEDC [L21C]", "parameter": "abundance fitness", "experimentalResult": -0.585}
{"biopolymerSequence": "LKKGSQVEALFSYEATQPEDLEFQEGDIIHVLSKVNEEWLEGECKGKVGIFPKVFVEDC [L30H]", "parameter": "abundance fitness", "experimentalResult": 0.448}
{"biopolymerSequence": "LKKGSQVEALFSYEATQPEDLEFQEGDIILVLSKVNEEWLEKECKGKVGIFPKVFVEDC [G42K]", "parameter": "abundance fitness", "experimentalResult": -0.768}

Please fill in: abundance fitness reported for LKKGSQVEALFSYEATQPEDLEFQEGDIILVLSKVNEEWLEGECSGKVGIFPKVFVEDC [K45S] = -0.691

Please fill in: abundance fitness reported for LKKGSQVEALFSYEATQPEDLEFQEGDIILVLSKVNEEWLHGECKGKVGIFPKVFVEDC [E41H] = -0.682

Please fill in: abundance fitness reported for LKKGSQVEALFSYEATQPEDLEFQEGDIIRVLSKVNEEWLEGECKGKVGIFPKVFVEDC [L30R] = 0.552

Please fill in: abundance fitness reported for LKKGSQVEALFSYEATQPEDLEFVEGDIILVLSKVNEEWLEGECKGKVGIFPKVFVEDC [Q24V] = -0.279

Please fill in: abundance fitness reported for LKKGSQVEALFSYEATQPEDLYFQEGDIILVLSKVNEEWLEGECKGKVGIFPKVFVEDC [E22Y] = -0.565

Please fill in: abundance fitness reported for LKWGSQVEALFSYEATQPEDLEFQEGDIILVLSKVNEEWLEGECKGKVGIFPKVFVEDC [K3W] = -0.781

Please fill in: abundance fitness reported for LKKGSQVEALFSYEATQPEDLEFQEGPIILVLSKVNEEWLEGECKGKVGIFPKVFVEDC [D27P] = -0.783

Please fill in: abundance fitness reported for LKKGSQVEALFSYEATQPEDLEFQEGDIILVLSKVNEEWLEGECKGKVGIFPKVFVPDC [E57P] = -0.28

Please fill in: abundance fitness reported for LKKGSQVEALFSYEATQPEDLEFQEGDIILVLSNVNEEWLEGECKGKVGIFPKVFVEDC [K34N] = -0.287

Please fill in: abundance fitness reported for LKKGSQVEALFSYEATQPEDLEFQEGDIILVLSKVNEEWLEGECKGKVGIFPKVFVEDV [C59V] = 0.402
